Molecular target: T1, human recombinant melanocortin-4 receptor (human, UniProt P32245 1-332)
T1 construct: whole, on cells; cAMP assays used the whole cells; also called hMC4-R; MC4-R
T1 sequence (P32245 whole entry): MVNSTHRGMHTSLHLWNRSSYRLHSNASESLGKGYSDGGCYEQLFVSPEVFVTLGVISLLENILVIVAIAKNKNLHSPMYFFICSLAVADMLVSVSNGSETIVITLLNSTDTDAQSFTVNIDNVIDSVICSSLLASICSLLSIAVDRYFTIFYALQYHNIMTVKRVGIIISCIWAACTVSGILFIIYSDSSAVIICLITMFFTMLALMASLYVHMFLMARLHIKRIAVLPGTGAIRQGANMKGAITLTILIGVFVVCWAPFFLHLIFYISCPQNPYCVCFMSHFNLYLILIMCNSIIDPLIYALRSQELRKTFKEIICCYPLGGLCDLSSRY
Test: competitive inhibition of labelled NDP-α-MSH, hMC4-R membranes
Bridge positions count the residues as written; N and C are the ends. Square brackets hold non-standard residues; d marks the D form. Aad = N[C@@H](CCCC(=O)O)C(=O)O; Orn = NCCC[C@H](N)C(=O)O; Dab = NCC[C@H](N)C(=O)O
# note: boundary value 5 nM maps to no; Ki below it maps to yes

1) RXQFRWX (N-acetyl; X2 = Dab; D-Phe 4; X7 = hGlu; side-chain lactam Dab2-hGlu7; C-terminal amide, also called peptide No. 159) [Ac-Arg-cyclo(Dab-Gln-D-Phe-Arg-Trp-hGlu)-NH2]; yes
2) Ac-[dR]DQ[dF]RWK-NH2 (lactam 2-7, also called peptide No. 71) [Ac-D-Arg-cyclo(Asp-Gln-D-Phe-Arg-Trp-Lys)-NH2]; no
3) Ac-R[Aad]N[dF]RW[Dab]-NH2 (lactam 2-7, also called peptide No. 160) [Ac-Arg-cyclo(hGlu-Asn-D-Phe-Arg-Trp-Dab)-NH2]; no
4) Ac-REN[dF]RW[Orn]-NH2 (lactam 2-7, also called peptide No. 161) [Ac-Arg-cyclo(Glu-Asn-D-Phe-Arg-Trp-Orn)-NH2]; no
